experiment: Log D by shake flask method (octanol / PBS pH 7.4, HPLC); assay type: physicochemical; conditions: octanol/phosphate-buffered saline; octanol / PBS pH 7.4, shake flask
recordedMetric: logD

CCNC(=O)C(=O)CC[C@H](NC(=O)c1ccn(C)n1)C(=O)Nc1cccn(CC(=O)N[C@]23C[C@H]4C5CC6CC4[C@H](C2)C(C6)[C@H]5C3)c1=O (single isomer, unassigned) [Compound I-80]: 1 to 3

Ask | Find the recorded logD belonging to CCNC(=O)C(=O)CC[C@H](NC(=O)c1ncc(OC)o1)C(=O)Nc1cccn(CCC(=O)NC2C3CC4CC(C3)CC2C4)c1=O (some centres unmarked) [Compound I-87] and report it.
Reply | 1 to 3

Sourced from patent US20240376055A1
